system: KG-1; experiment: Antiproliferative activity against human KG-1 cells assessed as reduction in cell viability incubated for 72 hrs by MTT assay; assay type: functional, cell-based; conditions: KG-1, 72 h
RECORDED ENDPOINT: pIC50
Recall that pIC50 is obtained by taking minus log10 of the concentration measured in molar.

Just so you know, measured pIC50 for `Nc1ccn([C@@H]2O[C@H](CO)[C@@H](O)C2(F)F)c(=O)n1` came out at 7.74

Just so you know, measured pIC50 for `CCCCCOC(=O)Nc1nc(=O)n([C@@H]2O[C@H](CO)[C@@H](O)C2(F)F)cc1F` came out at 6.89

Just so you know, measured pIC50 for `CCCCCOC(=O)Nc1nc(=O)n([C@@H]2O[C@H](C)[C@@H](O)[C@H]2O)cc1F` came out at 5.05
